Origin of measurements: patent US20160145343A1

Target: T1, Synthetic peptide (GVTSAPDTRPAPGSTAPPAH)2
T1 peptide: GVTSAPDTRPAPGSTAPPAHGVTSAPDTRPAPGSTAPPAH
Experiment: ELISA on coated peptide, antibody 0.01 mg/ml, mean of 3
Listing of recorded ELISA absorbance at 450 nm by entry.
REPORTED METRIC: ELISA absorbance at 450 nm (absorbance)

• M21 (antibody, human IgG1, kappa, V domains shown, Human IgG) VH: EVQLVESGGGLVQPGGSLRLSCAASGFTVSSNYMSWVRQAPGKGLEWVSVIYSGGSTYYADSVKGRFTISRDNSKNTLYLQMNSLRAEDTAVYYCARDQEHYFDGSGYYVDYWGQGTLVTVSS VL: DVVMTQSPLSLPVTLGQPASISCRSSQSLVYSDGNTYLNWFQQRPGQSPRRLIYQVSNRDSGVPDRFSGSGSGTDFTLKIGRVEAEDVGVYFCMQGTHWPWTFGQGTKVEIKR = 3
• M3 (antibody, human IgG1, lambda, V domains shown, Human IgG) VH: QLQLQESGPGLVKPSETLSLTCTVSGGSISSSSYYWGWIRQPPGKGLEWIGSIYYSGSTHYNPSLKSRVTISVDTSKNQFSLKLRSVTAADTAVYYCARGVVEVRGNHYYYYYMDVWGKGTTVTVSS VL: QSVLTQPPSVSGAPGQRVTISCTGSSSNIGAGYDVHWYQQLPGTAPKLLIYGNSYRPSGVPDRFSGSKSGTSASLAITGLQAEDEADYYCQSYDSSLSGSGVFGGGTKLTVLG = 3.1
• M22 (antibody, human IgG1, kappa, V domains shown, Human IgG) VH: EVQLVESGGGLVQPGGSLRLSCAASGFTVSSNYMSWVRQAPGKGLEWVSVIYSGGTTYYADSVKGRFTISRHNSKNTLYLQMNSLRAEDTAVYYCARDHDPDYGGYYMDVWGKGTTVTVSS VL: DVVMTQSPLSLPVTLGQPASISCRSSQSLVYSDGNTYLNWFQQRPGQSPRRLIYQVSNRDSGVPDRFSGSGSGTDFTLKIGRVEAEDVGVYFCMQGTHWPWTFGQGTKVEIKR = 3.1
• M20 (antibody, human IgG1, kappa, V domains shown, Human IgG) VH: EVQLVESGGGLVQPGGSLRLSCAASGFTFSSYWMHWVRQAPGKGLVWVSHINSDGSSTSYADSVKGRFTISRDNAKNTLYLQMNSLRAEDTAVYYCARELADWGQGTLVTVSS VL: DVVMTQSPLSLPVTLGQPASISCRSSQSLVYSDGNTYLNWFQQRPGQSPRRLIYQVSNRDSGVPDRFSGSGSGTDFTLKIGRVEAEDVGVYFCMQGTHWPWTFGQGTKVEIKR = 2.8
